// reported Minimal inhibitory concentration PA^g per item
- Tested on: P. aeruginosa PA01 (H103)
- Format: cell-based, Pseudomonas aeruginosa
- Measurement parameters: H103, 18 h
Non-standard residues stand in square brackets, D forms with d. Residues, ends and D or L forms follow the SMILES beside them. Gly(Nα-4-Cl-benzyl) = O=C(O)CNCc1ccc(Cl)cc1; N(4-Br-benzyl)Gly = O=C(O)CNCc1ccc(Br)cc1; N(4-F-Bzl)Gly = O=C(O)CNCc1ccc(F)cc1; Nphe = O=C(O)CNCc1ccccc1; Nlys = NCCCCNCC(=O)O
Number only, in µg/mL; omit the unit.

{"Molecule": "NCCCCNCC(=O)N(CC(=O)N(CCCCN)CC(=O)N(CC(=O)N(CCCCN)CC(=O)N(CC(N)=O)Cc1ccc(Br)cc1)Cc1ccccc1)Cc1ccc(Br)cc1 [Compound 8] (H-[Nlys][N(4-Br-benzyl)Gly][Nlys][Nphe][Nlys][N(4-Br-benzyl)Gly]-NH2)", "Test target": "P. aeruginosa PA01 (H103)", "Assay result": 256}
{"Molecule": "NCCCCNCC(=O)N(CC(=O)N(CCCCN)CC(=O)N(CC(=O)N(CCCCN)CC(=O)N(CC(=O)N(CCCCN)CC(=O)N(CC(=O)N(CCCCN)CC(=O)N(CC(N)=O)Cc1ccc(F)cc1)Cc1ccccc1)Cc1ccc(F)cc1)Cc1ccccc1)Cc1ccc(F)cc1 [Compound 24] (H-[Nlys][N(4-F-Bzl)Gly][Nlys][Nphe][Nlys][N(4-F-Bzl)Gly][Nlys][Nphe][Nlys][N(4-F-Bzl)Gly]-NH2)", "Test target": "P. aeruginosa PA01 (H103)", "Assay result": 512}
{"Molecule": "NCCCCNCC(=O)N(CC(=O)N(CCCCN)CC(=O)N(CC(=O)N(CCCCN)CC(=O)N(CC(=O)N(CCCCN)CC(=O)N(CC(=O)N(CCCCN)CC(=O)N(CC(=O)N(CCCCN)CC(=O)N(CC(N)=O)Cc1ccc(Br)cc1)Cc1ccc(Br)cc1)Cc1ccc(Br)cc1)Cc1ccc(Br)cc1)Cc1ccc(Br)cc1)Cc1ccc(Br)cc1 [Compound 31] (H-[Nlys][N(4-Br-benzyl)Gly][Nlys][N(4-Br-benzyl)Gly][Nlys][N(4-Br-benzyl)Gly][Nlys][N(4-Br-benzyl)Gly][Nlys][N(4-Br-benzyl)Gly][Nlys][N(4-Br-benzyl)Gly]-NH2)", "Test target": "P. aeruginosa PA01 (H103)", "Assay result": 256}
{"Molecule": "NCCCCNCC(=O)N(CC(=O)N(CCCCN)CC(=O)N(CC(=O)N(CCCCN)CC(=O)N(CC(N)=O)Cc1ccc(Cl)cc1)Cc1ccc(Cl)cc1)Cc1ccc(Cl)cc1 [Compound 3] (H-[Nlys][Gly(Nα-4-Cl-benzyl)][Nlys][Gly(Nα-4-Cl-benzyl)][Nlys][Gly(Nα-4-Cl-benzyl)]-NH2)", "Test target": "P. aeruginosa PA01 (H103)", "Assay result": 512}
{"Molecule": "NCCCCNCC(=O)N(CC(=O)N(CCCCN)CC(=O)N(CC(=O)N(CCCCN)CC(=O)N(CC(=O)N(CCCCN)CC(=O)N(CC(=O)N(CCCCN)CC(=O)N(CC(=O)N(CCCCN)CC(=O)N(CC(N)=O)Cc1ccc(F)cc1)Cc1ccc(F)cc1)Cc1ccc(F)cc1)Cc1ccc(F)cc1)Cc1ccc(F)cc1)Cc1ccc(F)cc1 [Compound 29] (H-[Nlys][N(4-F-Bzl)Gly][Nlys][N(4-F-Bzl)Gly][Nlys][N(4-F-Bzl)Gly][Nlys][N(4-F-Bzl)Gly][Nlys][N(4-F-Bzl)Gly][Nlys][N(4-F-Bzl)Gly]-NH2)", "Test target": "P. aeruginosa PA01 (H103)", "Assay result": 64}

Next molecule, please.
Q) For the molecule NCCCCNCC(=O)N(CC(=O)N(CCCCN)CC(=O)N(CC(=O)N(CCCCN)CC(=O)N(CC(=O)N(CCCCN)CC(=O)N(CC(=O)N(CCCCN)CC(=O)N(CC(=O)N(CCCCN)CC(=O)N(CC(N)=O)Cc1ccc(F)cc1)Cc1ccccc1)Cc1ccc(F)cc1)Cc1ccccc1)Cc1ccc(F)cc1)Cc1ccccc1 [Compound 33] (H-[Nlys][Nphe][Nlys][N(4-F-Bzl)Gly][Nlys][Nphe][Nlys][N(4-F-Bzl)Gly][Nlys][Nphe][Nlys][N(4-F-Bzl)Gly]-NH2) , report Minimal inhibitory concentration PA^g.
A) 256
